# merged literature set: Ki with Substance-K receptor (Homo sapiens, UniProt P21452)
# target.or.system: Substance-K receptor (Homo sapiens, UniProt P21452)
# Sequence (P21452 whole entry): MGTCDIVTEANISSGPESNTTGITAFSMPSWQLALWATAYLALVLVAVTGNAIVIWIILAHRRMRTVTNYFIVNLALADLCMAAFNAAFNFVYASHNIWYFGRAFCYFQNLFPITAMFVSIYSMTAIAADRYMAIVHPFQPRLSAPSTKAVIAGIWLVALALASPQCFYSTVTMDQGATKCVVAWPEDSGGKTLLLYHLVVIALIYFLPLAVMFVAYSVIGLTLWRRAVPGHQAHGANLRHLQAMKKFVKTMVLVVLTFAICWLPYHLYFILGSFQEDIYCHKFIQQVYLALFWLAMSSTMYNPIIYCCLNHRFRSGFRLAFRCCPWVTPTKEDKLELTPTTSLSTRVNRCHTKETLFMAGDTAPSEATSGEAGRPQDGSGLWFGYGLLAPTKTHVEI

A selection of reference data follows.
compound	assay.endpoint	reported
O=C(C1=C(c2ccccc2)OC2OC(COCc3ccccc3)C(OCc3ccccc3)C(OCc3ccccc3)C2S1)c1ccccc1 (stereo unspecified)	Ki	> 10000 nM
COC(=O)[C@H](NC(=O)c1cc(-c2ccccc2)nc2ccccc12)c1ccccc1	Ki	8330 nM
CCCC1CCN(CCC(CN(C)C(=O)c2ccccc2)c2ccc(Cl)c(Cl)c2)CC1 (stereo unspecified)	Ki	9.9 nM

Query: Ki; subject: CC1CCCCN1CCCNC(=O)[C@@H](Cc1ccccc1)NC(=O)C1(NC(=O)c2cc3ccccc3s2)CCCCC1 (stereo partly specified)
0.398 nM

Query: Ki; subject: `Cc1ccc2cc(C(=O)NC3(C(=O)N[C@@H](CCCN4CCN(Cc5ccoc5)CC4)Cc4ccccc4)CCCC3)sc2c1`
0.158 nM

Query: Ki; subject: `CCC(O)(CC)C1CCN(CC[C@H](CN(C)C(=O)c2ccccc2)c2ccc(Cl)c(Cl)c2)CC1`
0.84 nM

Query: Ki; subject: O=C(NC1(C(=O)NC(Cc2ccccc2)C(=O)NCCN2CCCCC2)CCCCC1)c1cc2ccccc2s1 (stereo unspecified)
63.1 nM

Query: Ki; subject: CCc1c(C#N)cc2ccccc2c1C(=O)N(C)C[C@@H](CCN1CCC(c2ccccc2[S@+](C)[O-])CC1)c1ccc(Cl)c(Cl)c1 (stereo in doubt; 3)
37 nM

Query: Ki; subject: `COc1ccc(Oc2ccc(NC(=O)N[C@H](Cc3ccccc3)C(=O)NCCCN3CCOCC3)cc2)cc1`
> 1000 nM

Query: Ki; subject: `Cc1ccc2cc(C(=O)NC3(C(=O)N[C@@H](CCCN4CCC(N(C)C5CCOCC5)CC4)Cc4ccccc4)CCCC3)sc2c1`
1.26 nM

Query: Ki; subject: `O=C(NCCCN1CCOCC1)[C@@H](Cc1ccccc1)NC(=O)N(c1ccccc1)c1ccccc1`
> 3000 nM

Query: Ki; subject: CO/N=C(\COCc1cc(C(F)(F)F)cc(C(F)(F)F)c1)C(CCN1CCN(CC(=O)N2CCCC(O)C2)CC1)c1ccc(Cl)c(Cl)c1 (stereo unspecified)
38 nM
